- System: UO-31 renal
- experiment: NCI-60 one-dose screen, 48 h (100 = growth as untreated, 0 = no growth, -100 = all killed)
- details: 10 µM unless noted
This is part of a sample that, as a whole, favours compounds with a hit. Of some 83,000 tested, about 20% had one in any assay.
For each record, check the reported growth: if it is below 70% write true (1), else write false (0).

Req: Find out if reported growth for `Cc1cc(Cl)ccc1NS(=O)(=O)c1ccc(-c2cnc(C3CC3)o2)cc1` is less than 70%
Resp: true (1)

Req: Now try `Oc1ccc(CCl)c2cccnc12` .
Resp: true (1)

Req: Now try `C/C(=C(/c1ccccc1)c1ccc(N2C(=O)c3cccc4c(N5CCN(C)CC5)ccc(c34)C2=O)cc1)c1ccccc1` .
Resp: true (1)

Req: Now try `Cc1nc2ccccc2c(/C=C/c2ccccc2)c1C(=O)/C=C/c1ccc(C(F)(F)F)cc1` .
Resp: true (1)

Req: Now try `Cc1nc2ccccc2n1CC1C(=O)NC(=O)NC1=O` .
Resp: false (0)

Req: Now try `COc1ccc2nc(NC(=O)c3cccnc3Nc3ccc(S(N)(=O)=O)cc3)sc2c1` .
Resp: false (0)

Req: Now try `CCOc1ccc2nc(SCc3nc4n(n3)S(=O)(=O)c3ccccc3N4C)sc2c1` .
Resp: true (1)

Req: Now try `O=C1c2cccc3cccc(c23)C(=O)N1Nc1nc(N2CCOCC2)nc(N2CCN(c3ccccc3)CC2)n1` .
Resp: true (1)

Req: Now try `CCOc1c(B(O)O)cccc1-c1nc2ccc3[nH]ncc3c2c2c1CCCC2` .
Resp: true (1)

Req: Now try `CCOC(=O)Cn1c(=O)c2c(c3ccccc3n2C)n2nnc(-c3ccccc3)c12` .
Resp: false (0)

###

- Test system: CAKI-1 renal
- experiment: NCI-60 one-dose screen, 48 h (100 = growth as untreated, 0 = no growth, -100 = all killed)
- details: 10 µM unless noted
This is part of a sample that, as a whole, favours compounds with a hit. Of some 83,000 tested, about 20% had one in any assay.
Please provide measured growth for the entries that follow.
The figure you give is taken to be in %; do not add the unit.

Req: What does the record list as growth for `NCCCNc1nc2ccccc2c2c(=O)c3cc(C(F)(F)F)ccc3sc12` ?
Resp: -67.7

Req: Now try CCn1cnc2c1c(=O)[nH]c(=O)n2CC1CCC(CNS(=O)(=O)c2ccc(OC3CCOCC3)c(F)c2)CC1 (stereo unspecified) .
Resp: 46.2

Req: Now try `CCOc1cccc(NC2=C(Br)C(=O)C(C)=C(C)C2=O)c1` .
Resp: 96

Req: Now try `NCCCNc1nc2ccccc2c2c(=O)c3cc(OC(F)(F)F)ccc3sc12` .
Resp: -72.7

Req: Now try CCOC(=O)C1=C(N)Oc2c(sc3c(C)cccc23)C1c1ccc(Cl)cc1 (stereo unspecified) .
Resp: 2.8

Req: Now try `Fc1cc(-c2nnc3n2NC(=Nc2ccc(Cl)cc2)CS3)c(Cl)cc1Cl` .
Resp: 94.2

Req: Now try `NCCNc1nc2ccccc2c2c(=O)c3cc(F)ccc3sc12` .
Resp: 45.1

Req: Now try `COc1cc2cc(Oc3ccc(NC(=O)Nc4cc(C(F)(F)F)cc(C(F)(F)F)c4)cc3)c(C)nc2cc1OCCN1CCOCC1` .
Resp: 15.3

Req: Now try `COc1ccc2c(c1)c(-c1ccc(-c3cn(C)c4ccc(OC)cc34)o1)cn2C` .
Resp: 37.2

Req: Now try `CCOC(=O)c1cn2ncnc(Oc3ccc(NC(=O)NCCN(CC)CC)c(Cl)c3)c2c1C` .
Resp: 68.8

Req: Now try `O=c1c2cc(F)ccc2sc2c(N3CCNCC3)nc3ccc(F)cc3c12` .
Resp: -96.9

Req: Now try `CN1C(=O)CNC(=O)[C@H](NC(=O)c2nc3ccccc3cc2O)CSSC[C@H]1C(=O)NCCCc1nc2ccccc2cc1O` .
Resp: 107

Req: Now try `Cc1[nH]c(C(=O)Nc2ccc(C(=O)N3CCNCC3)cc2OC(C)C)c(Cl)c1Cl` .
Resp: 48.8

Req: Now try `CCOC(=O)c1c(C)nc2c(c1N)CC(=O)N2Cc1ccc(F)cc1` .
Resp: 92.9

Req: Now try CC(=O)CC(c1ccccc1)c1c(C)[nH]c2ccccc12 (stereo unspecified) .
Resp: 77.8

Req: Now try `CCc1nnc(NC(=O)c2nnn(-c3ccccc3)c2-c2ccco2)s1` .
Resp: 92.1

Req: Now try `COc1ccc(S(=O)(=O)n2c3ccccc3n3ncc(-c4nnc(C)o4)c23)cc1` .
Resp: 32.1

Req: Now try `c1ccc(-c2nc3nonc3nc2-c2ccccc2)cc1` .
Resp: 51

Req: Now try `CCOC(=O)NCCc1ccccc1` .
Resp: 86

Req: Now try CCc1cccc2c3c(sc12)C(c1ccc(Cl)cc1)C(C#N)=C(N)O3 (stereo unspecified) .
Resp: 3.05

Req: Now try `O=C(COc1ccc(/C=C2\Cc3ccc(Cl)cc3C2=O)cc1)Nc1nc2ccccc2s1` .
Resp: 92.3

###

- System: NCI-H23 lung
- experiment: NCI-60 one-dose screen, 48 h (100 = growth as untreated, 0 = no growth, -100 = all killed)
- details: 10 µM unless noted
- Procedure: Growth inhibition of the NCI-H23 human Non-Small Cell Lung tumor cell line is measured as a screen for anti-cancer activity. Cells are grown in 96 well plates and exposed to the test compound for 48 hours. Compounds are tested at a single concentration, which is 10^-5 M for most compounds. The reported endpoint is percent growth (GI% or GIPRCNT), where numbers from 0 - 100% represent growth inhibition, and numbers from -100% - 0 represent cell death. […]
This is part of a sample that, as a whole, favours compounds with a hit. Of some 83,000 tested, about 20% had one in any assay.
measured_quantity: growth (%)
The figure you give is taken to be in %; do not add the unit.

Req: Enter reported growth observed with NCI-H23 lung for `CCN(CC)CCCNc1nc2ccccc2c2c(=O)c3cc(Cl)ccc3sc12`
Resp: 86.5

Req: Now try `CCC(=O)Nc1ccc(-c2nc(-c3cccc(OC)c3)c(-c3ccnc(Br)c3)[nH]2)cc1` .
Resp: 76.9

Req: Now try `NC(=O)Nc1ccc2ncnc(Nc3ccc(Cl)cc3)c2c1` .
Resp: 100

Req: Now try `CN(C)c1ccc2nc3ccc(=[N+](C)C)c([N+](=O)[O-])c-3sc2c1` .
Resp: 9.52

Req: Now try CCCCCCN1C(=O)/C(=c2\sc3n(c2=O)C2C(NN=3)N(CC)C(=O)N2CC)c2ccccc21 (stereo not drawn) .
Resp: 25.6

Req: Now try `CCCCCCn1c(-c2ccc(C(=O)O/N=C(\N)c3ccc4ccccc4c3)cc2)nc(-c2ccccc2)c1-c1ccccc1` .
Resp: 44.3

Req: Now try `CCOC(=O)c1nc(Nc2ccc(C(C)=O)cc2)sc1C` .
Resp: 94.1

Req: Now try `O=c1cc(SCc2ccccc2)nc[nH]1` .
Resp: 108

Req: Now try `COc1cc(-c2nc3sccn3c2-c2ccnc(NCCCNS(=O)(=O)c3ccc(F)cc3)n2)ccc1F` .
Resp: 52.6

Req: Now try Cc1ccc(C(=O)NN2C(=O)CSC2c2cccc([N+](=O)[O-])c2)cn1 (stereo not drawn) .
Resp: 93.2

Req: Now try `N#Cc1c(-c2ccccc2)nc(SCC(=O)Nc2nc(-c3ccc(Cl)cc3)cs2)[nH]c1=O` .
Resp: 84.1

Req: Now try `Cc1cc2nc3cc(C)c(N)cc3[n+](-c3ccccc3)c2cc1N` .
Resp: 39.8

Req: Now try `COc1cc2oc(-c3ccc(O)cc3)cc(=O)c2c(O)c1-c1c(OC)cc(O)c2c(=O)cc(-c3ccc(O)cc3)oc12` .
Resp: 31.9

Req: Now try C/C=C(\C)C(=O)N[C@H]1[C@@H](OC(C)=O)C[C@]2(C)C3CC[C@@]4(C)C(CC[C@@H]4C(C)N(C)C)C3CCC2[C@H]1O (stereo partly drawn) .
Resp: 74.4

Req: Now try NC[C@@H]1O[C@H](O[C@@H]2[C@@H](CO)OC(O[C@@H]3[C@@H](O)[C@H](N)C[C@H](N)[C@H]3OC3O[C@H](CN)[C@@H](O)[C@H](O)[C@H]3N)[C@@H]2O)[C@H](N)[C@@H](O)[C@@H]1O (stereo partly drawn) .
Resp: 100

Req: Now try `COC(=O)Nc1ccc(-c2nc(-c3cccc(OC)c3)c(-c3ccnc(Br)c3)[nH]2)cc1` .
Resp: 67.7

Req: Now try `Cc1ccc(-c2cnc3sc(C(=O)NCCc4ccccc4)c(C)n23)cc1` .
Resp: 95.4

Req: Now try CN(C)CCN1CCN(c2ncccc2C2Nc3ccccc3-n3cccc32)CC1 (stereo not drawn) .
Resp: 96.2
